Reference source for all entries: patent US9371280B2

target: interaction between p53 and MDM2 proteins (recombinant GST-tagged MDM2) (Homo sapiens); experiment: HTRF assay of inhibition of the p53-MDM2 interaction (GST-MDM2 / biotinylated p53 peptide);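 also: FRET read-out from Eu-labelled anti-GST antibody to streptavidin-APC, with 90 nM N-terminally biotinylated p53 peptide and 160 ng/ml GST-MDM2 in Tris-borate saline containing 1 mM DTT, 384-well format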; type: binding; settings: HTRF, 0.02% BSA, 37° C. 1 h
Sequence (Q00987 whole entry): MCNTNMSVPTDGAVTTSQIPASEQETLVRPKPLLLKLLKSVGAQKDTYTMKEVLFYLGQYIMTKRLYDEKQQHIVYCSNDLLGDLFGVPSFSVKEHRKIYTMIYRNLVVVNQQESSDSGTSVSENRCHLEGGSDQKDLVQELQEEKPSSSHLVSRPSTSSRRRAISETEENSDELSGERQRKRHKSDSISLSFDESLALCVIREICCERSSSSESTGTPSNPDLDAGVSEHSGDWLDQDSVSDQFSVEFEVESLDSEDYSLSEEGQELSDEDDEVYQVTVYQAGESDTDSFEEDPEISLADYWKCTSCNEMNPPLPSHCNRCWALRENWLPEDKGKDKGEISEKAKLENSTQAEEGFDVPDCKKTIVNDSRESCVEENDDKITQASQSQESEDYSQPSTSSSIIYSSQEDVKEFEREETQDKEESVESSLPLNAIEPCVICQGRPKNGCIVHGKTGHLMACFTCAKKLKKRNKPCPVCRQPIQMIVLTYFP
Where a name gives a salt, the structure may show the parent alone.
Could you mark each record label 1 if its IC50 falls strictly under 10 nM, and label 0 if it equals or exceeds it?

compound="COc1cc(C(=O)OCCO)ccc1NC(=O)[C@@H]1N[C@@H](CC(C)(C)C)[C@](C#N)(c2ccc(Cl)cc2F)[C@H]1c1cccc(Cl)c1F [Example 1]" category="label 0"
compound="COc1cc(C(=O)OCCOCCOCCOCCOCCO)ccc1NC(=O)[C@@H]1N[C@@H](CC(C)(C)C)[C@](C#N)(c2ccc(Cl)cc2F)[C@H]1c1cccc(Cl)c1F [Example 50, hydrochloride]" category="label 1"
compound="COc1cc(C(=O)OCC(=O)N[C@@H](CCC(=O)O)C(=O)O)ccc1NC(=O)[C@@H]1N[C@@H](CC(C)(C)C)[C@](C#N)(c2ccc(Cl)cc2F)[C@H]1c1cccc(Cl)c1F [Example 71]" category="label 1"
compound="COc1cc(C(=O)OCC2CCN(C)CC2)ccc1NC(=O)[C@@H]1N[C@@H](CC(C)(C)C)[C@](C#N)(c2ccc(Cl)cc2F)[C@H]1c1cccc(Cl)c1F [Example 18]" category="label 0"
compound="COCCOC(=O)c1ccc(NC(=O)[C@@H]2N[C@@H](CC(C)(C)C)[C@](C#N)(c3ccc(Cl)cc3F)[C@H]2c2cccc(Cl)c2F)c(OC)c1 [Example 10]" category="label 0"

Task: In the record for COc1cc(C(=O)OCC(=O)NCCOCCOCCOCCO)ccc1NC(=O)[C@@H]1N[C@@H](CC(C)(C)C)[C@](C#N)(c2ccc(Cl)cc2F)[C@H]1c1cccc(Cl)c1F [Example 75] , is IC50 less than 10 nM?
Output: label 1

Task: In the record for COc1cc(C(=O)OCCOC(=O)CN(C)C(=O)OC(C)(C)C)ccc1NC(=O)[C@@H]1N[C@@H](CC(C)(C)C)[C@](C#N)(c2ccc(Cl)cc2F)[C@H]1c1cccc(Cl)c1F [Example 31] , is IC50 less than 10 nM?
Output: label 0

Task: In the record for C=CCOC(=O)[C@H](CCCCNC(=O)OC(C)(C)C)NC(=O)COC(=O)c1ccc(NC(=O)[C@@H]2N[C@@H](CC(C)(C)C)[C@](C#N)(c3ccc(Cl)cc3F)[C@H]2c2cccc(Cl)c2F)c(OC)c1 [Example 78] , is IC50 less than 10 nM?
Output: label 0

Task: In the record for COc1cc(C(=O)On2nnc3cccnc32)ccc1NC(=O)[C@@H]1N[C@@H](CC(C)(C)C)[C@](C#N)(c2ccc(Cl)cc2F)[C@H]1c1cccc(Cl)c1F [Example 20] , is IC50 less than 10 nM?
Output: label 1

Task: In the record for COc1cc(C(=O)NC(C)CO)ccc1NC(=O)[C@@H]1N[C@@H](CC(C)(C)C)[C@](C#N)(c2ccc(Cl)cc2F)[C@H]1c1cccc(Cl)c1F (mixture of isomers) [Example 14] , is IC50 less than 10 nM?
Output: label 1

Task: In the record for COc1cc(C(=O)OCCOC(=O)CNC(=O)OC(C)(C)C)ccc1NC(=O)[C@@H]1N[C@@H](CC(C)(C)C)[C@](C#N)(c2ccc(Cl)cc2F)[C@H]1c1cccc(Cl)c1F [Example 29] , is IC50 less than 10 nM?
Output: label 0

Task: In the record for COc1cc(C(=O)OC2CCN(C)CC2)ccc1NC(=O)[C@@H]1N[C@@H](CC(C)(C)C)[C@](C#N)(c2ccc(Cl)cc2F)[C@H]1c1cccc(Cl)c1F [Example 17] , is IC50 less than 10 nM?
Output: label 0

Task: In the record for COc1cc(C(=O)OCC(=O)N2CCOCC2)ccc1NC(=O)[C@@H]1N[C@@H](CC(C)(C)C)[C@](C#N)(c2ccc(Cl)cc2F)[C@H]1c1cccc(Cl)c1F [Example 66] , is IC50 less than 10 nM?
Output: label 1

Task: In the record for CCN(CC)CCOC(=O)c1ccc(NC(=O)[C@@H]2N[C@@H](CC(C)(C)C)[C@](C#N)(c3ccc(Cl)cc3F)[C@H]2c2cccc(Cl)c2F)c(OC)c1 [Example 16] , is IC50 less than 10 nM?
Output: label 0

Task: In the record for CNCC(=O)OCCOC(=O)c1ccc(NC(=O)[C@@H]2N[C@@H](CC(C)(C)C)[C@](C#N)(c3ccc(Cl)cc3F)[C@H]2c2cccc(Cl)c2F)c(OC)c1 [Example 32, hydrochloride] , is IC50 less than 10 nM?
Output: label 0

Task: In the record for COc1cc(C(=O)OCC(=O)NCC2COC(C)(C)O2)ccc1NC(=O)[C@@H]1N[C@@H](CC(C)(C)C)[C@](C#N)(c2ccc(Cl)cc2F)[C@H]1c1cccc(Cl)c1F (some centres unmarked) [Example 67] , is IC50 less than 10 nM?
Output: label 0

Task: In the record for COc1cc(C(=O)OCCOCCOCCOCCOCCOCCOCCOCCO)ccc1NC(=O)[C@@H]1N[C@@H](CC(C)(C)C)[C@](C#N)(c2ccc(Cl)cc2F)[C@H]1c1cccc(Cl)c1F [Example 42, trifluoroacetate salt] , is IC50 less than 10 nM?
Output: label 0

Task: In the record for COc1cc(C(=O)OCCOCCOCCOCCO)ccc1NC(=O)[C@@H]1N[C@@H](CC(C)(C)C)[C@](C#N)(c2ccc(Cl)cc2F)[C@H]1c1cccc(Cl)c1F [Example 57, hydrochloride] , is IC50 less than 10 nM?
Output: label 0
